The measured values listed here are drawn from patent US8759500B2.

# assay: Further oral pharmacokinetic study in female Balb/c mice, 5, 10 and 20 mg/kg
# condition-summary: mouse, plasma, 20 mg/kg, AUC 0-24, Mean, 20 mg/kg single oral dose
endpoint-name: AUC(0-t) (ng·h/mL)

molecule: CC[C@H]1OC(=O)[C@@](C)(F)C(=O)[C@H](C)[C@@H](O[C@@H]2O[C@H](C)C[C@H](N(C)C)[C@H]2O)[C@](C)(OC)C[C@@H](C)C(=O)[C@H](C)[C@H]2N(CCCCn3cc(-c4cccc(N)c4)nn3)C(=O)O[C@]12C [Form II, solithromycin]
endpoint-name: AUC(0-t)
result-unit: ng·h/mL
test-result: 20100

###

# assay: Stability of Form I and Form II under various storage conditions
# Type: physicochemical
# condition-summary: 2-8° C.; 3 Month
# Excerpt: In each case, the test material was first placed in Primary Packaging Material (LLDPE bag within a HMHDPE/LDPE/LDPE blend bag, and then heat sealed). The Primary Packaging Material was placed in Secondary Packaging Material (HDPE drum). All other impurities were less than 1% at each time point.
Assay (on hydrous basis) by entry:
endpoint-name: Assay (on hydrous basis) (%)

compound: CC[C@H]1OC(=O)[C@@](C)(F)C(=O)[C@H](C)[C@@H](O[C@@H]2O[C@H](C)C[C@H](N(C)C)[C@H]2O)[C@](C)(OC)C[C@@H](C)C(=O)[C@H](C)[C@H]2N(CCCCn3cc(-c4cccc(N)c4)nn3)C(=O)O[C@]12C [Form I (Lot 4)]
endpoint-name: Assay (on hydrous basis)
result-unit: %
test-result: 98.4
//
compound: CC[C@H]1OC(=O)[C@@](C)(F)C(=O)[C@H](C)[C@@H](O[C@@H]2O[C@H](C)C[C@H](N(C)C)[C@H]2O)[C@](C)(OC)C[C@@H](C)C(=O)[C@H](C)[C@H]2N(CCCCn3cc(-c4cccc(N)c4)nn3)C(=O)O[C@]12C [Form II, solithromycin]
endpoint-name: Assay (on hydrous basis)
result-unit: %
test-result: 93.4
//
compound: CC[C@H]1OC(=O)[C@@](C)(F)C(=O)[C@H](C)[C@@H](O[C@@H]2O[C@H](C)C[C@H](N(C)C)[C@H]2O)[C@](C)(OC)C[C@@H](C)C(=O)[C@H](C)[C@H]2N(CCCCn3cc(-c4cccc(N)c4)nn3)C(=O)O[C@]12C [Form I (Lot 3)]
endpoint-name: Assay (on hydrous basis)
result-unit: %
test-result: 98.9

###

# assay: Oral pharmacokinetics in Balb/c mice, single dose 20 or 100 mg/kg
# condition-summary: female, Balb/c, mouse, plasma, po, 100 mg/kg

compound: CC[C@H]1OC(=O)[C@@](C)(F)C(=O)[C@H](C)[C@@H](O[C@@H]2O[C@H](C)C[C@H](N(C)C)[C@H]2O)[C@](C)(OC)C[C@@H](C)C(=O)[C@H](C)[C@H]2N(CCCCn3cc(-c4cccc(N)c4)nn3)C(=O)O[C@]12C [Form II, solithromycin]
concentration at 0 h (ng/mL): 0

###

# assay: in vivo
# condition-summary: female, Balb/c, mouse, po, 100 mg/kg

compound: CC[C@H]1OC(=O)[C@@](C)(F)C(=O)[C@H](C)[C@@H](O[C@@H]2O[C@H](C)C[C@H](N(C)C)[C@H]2O)[C@](C)(OC)C[C@@H](C)C(=O)[C@H](C)[C@H]2N(CCCCn3cc(-c4cccc(N)c4)nn3)C(=O)O[C@]12C [Form I, solithromycin]
result-unit: ng/mL
Cmax: 19500
